assay: yeast display, Sf9 membrane polyspecificity reagent, FACS + sequencing; frameworks hold sequencing errors

{"residues": "QVQLVESGGGIVQAGGSLRLSCAASGSIFQWYAMGWYRQAPGKERELVAAISFNGGITYYADSVKGRFTISRDNANNTVYLQMNSLKPEDTAVYYCATEYRSASGDYDYWGQGTQVTVSS", "polyreactivity (PSR sort gate)": "low polyreactivity"}
{"residues": "QVQLVESGGGIVQAGGSLRLTCAASGRTYTPYAMGWYRQAPGKERELVAAIDTSGGSTYADSVKGRFTISRDNAKNTVYLQMNSLKPEDTAVYYCATRGFYSWDYWYLWEYDYWGQGTQVTVSS", "polyreactivity (PSR sort gate)": "low polyreactivity"}
{"residues": "QVQLVESGGGLVQAGGSLRLSCAASGSIFYINAMGWYRQAPGKERELVAAINRGGSTNYADSVKGRFTISRDNAKNTVYLQMNSLKPEDTAVYYCAAYIYKTYRYYYWGQGTQVTVSS", "polyreactivity (PSR sort gate)": "high polyreactivity"}
{"residues": "QVQLVESGGGLVQAGGSLRLSCAASGIIFNWYAMGWYRQAPGKERELVAGISTSGGSTYYADSVKGRFTISRDNAKNTVYLQMNSLKPEDTAVYYCAARSRRYYGYDYWGQGTQVTVSS", "polyreactivity (PSR sort gate)": "high polyreactivity"}
{"residues": "QVQLVESGGGLVQAGCSLRLSCAASGRIFDFYAMGWYRHAPGKERELVAAISWDGSDTYYADSVKGRFTISRDNAKNTVYLQMNSLKPEDTAVYYCAADYYSPSGHEYNYWGQGTQVTVSS", "polyreactivity (PSR sort gate)": "high polyreactivity"}

====

assay: yeast display, Sf9 membrane polyspecificity reagent, FACS + sequencing; frameworks hold sequencing errors

{"residues": "QVQLVESGGGLVQAGCSLRLSCAASGRIFSFYAMGWYRQAPGKERELVITSGGDTNYADSVKGRFTISRDNAKNTVYLQLNSLKPEDTAVYYCNAEGDRSQPYNFDYWGQGTQVTVSS", "polyreactivity (PSR sort gate)": "low polyreactivity"}
{"residues": "QVQLVESGGGLVQAGGSLRLSCAASGSIFDYNAMGWYRQATGKERELVAAISSDGSTYYADSVKGRFTISRDNAKNSVYLQMNSLKPEDTAVYYCAADSVYSWSDYWGQGTQVTVSS", "polyreactivity (PSR sort gate)": "low polyreactivity"}
{"residues": "QDQLVESGGGLVQAGVSLRLSCPASGYNFDYYVMGWYRQAPGKERELVAAISSSGGSTYYADSVKGRFTISRDNAKNTVYLQMNSLKPEDTAVYYCATKPYPYYLYYYWGQGTQVTVSS", "polyreactivity (PSR sort gate)": "high polyreactivity"}
{"residues": "QVQLVESGGGLVQAGGSLRLSCAASGGIFYTNAMGWYRQAPGKERELVAAIRKNGDSTNYADSVKGRFTISRDNAKYTVYLHMNSLKPEDTAVYYCNDELWPWAYDYWGQGTQVTVSS", "polyreactivity (PSR sort gate)": "low polyreactivity"}
{"residues": "QVQLVESGGGLVQAGGSLRLSCAASGRIFRDYAMGWYRQAPGKERELVAAIRSVGNTNYADSVKGRFTISRDNAKNTVYLQMNSLKPEDTAVYYCNRQGSYFSRQAIGDFRFDYWGQGTQVTVSS", "polyreactivity (PSR sort gate)": "low polyreactivity"}
{"residues": "QVQLVESGGGLVQAGGSLRLSCAASGRNFKYNAMGWYRQAPGKERELVAVITSGGSTYYADSVKGRFTISRDNAKNTVYLQMNSLKPEDTAVYYCAKKYYKVHKFDYWGQGTQVTVSS", "polyreactivity (PSR sort gate)": "low polyreactivity"}
{"residues": "QVHLVESGGGLVQAGGSLRLSCAASGRTFPYTAMGSYRQAPGKERELVAAISSGGSTNYADSVKGRFTISRDNAKNTVYLQMNSLKPEDTAVYYCATKYQRRPYRYYYWGQGTQVSVSS", "polyreactivity (PSR sort gate)": "low polyreactivity"}
{"residues": "QVQLVESGGGLVQAGGSLRLSCAASGFTLARNTMGWYRQAPGKQRELVAAISGGGSTNYADSVKGRFTISRDNAKNTVYLLMYSLKPEHTAVYYCNADSNSDNNDYDYWGQGSQVTVSS", "polyreactivity (PSR sort gate)": "low polyreactivity"}
{"residues": "QVQLVESGGGLVQAGGSLRLSCAASGSTFGFYAMGWYRQAPGKERELVAAITASGDSTYYADSVKGRFTISRDNAKNTVYLQMNSLKPEDTAVYYCNAVWRYYRKRRAGDFGYWGQGTQVTVSS", "polyreactivity (PSR sort gate)": "low polyreactivity"}
{"residues": "QVQLVESGGGLVQAGGSLSLSCAASGRIFVRNTMGWYRQAPGKERELVATISRRGGITYYADSVKGRFTISRDNAKNTVYLQMNSLKPEDTAVYYCAAESYSFWLYDYCGQGTQVTVSS", "polyreactivity (PSR sort gate)": "high polyreactivity"}
{"residues": "QVQLEESGGGLVQAGGSLRLSCAASGSIFRRYARGWYRQAPGKERELVAAISRSGSSTYADSVKGRFTISRDNAKNTVYLQMNSLKPEDTAVYYCAASYAFLYYGYDSWGQGTQVTVSS", "polyreactivity (PSR sort gate)": "low polyreactivity"}
